Target: mfPRLR.mmh (monomeric macaca fascicularis PRLR)
Sequence (as listed by the source): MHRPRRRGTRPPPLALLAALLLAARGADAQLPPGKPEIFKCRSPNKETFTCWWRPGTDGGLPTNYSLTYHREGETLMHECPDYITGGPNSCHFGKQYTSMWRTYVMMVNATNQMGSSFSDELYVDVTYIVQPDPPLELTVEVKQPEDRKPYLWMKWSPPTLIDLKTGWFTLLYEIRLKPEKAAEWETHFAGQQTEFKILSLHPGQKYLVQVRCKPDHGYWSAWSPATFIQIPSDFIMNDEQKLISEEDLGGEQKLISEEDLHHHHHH
Assay: Surface plasmon resonance (Biacore T200), mAb-capture format
Format: binding
Conditions: 25° C., antibody-capture format, analyte mfPRLR.mmh
pKd values, listed per item
pKd (log units): -log10 of the concentration in mol/L.

Supply recorded pKd for H1H6792P: anti-PRLR antibody, human IgG1 Fc; HCVR/LCVR SEQ ID NOs 130/138 (antibody, V domains shown, human IgG1 Fc) VH: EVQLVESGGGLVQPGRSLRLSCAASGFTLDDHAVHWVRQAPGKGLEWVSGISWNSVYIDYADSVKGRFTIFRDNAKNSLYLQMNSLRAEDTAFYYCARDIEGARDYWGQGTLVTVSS VL: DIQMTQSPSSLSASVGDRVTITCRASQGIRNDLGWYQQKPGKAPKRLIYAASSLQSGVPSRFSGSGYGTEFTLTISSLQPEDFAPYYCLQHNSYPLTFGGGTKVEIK here.
8.38

Supply recorded pKd for H1H6967N: human IgG1 Fc form of H2M6967N; anti-PRLR; HCVR/LCVR SEQ ID NOs 354/362 (antibody, V domains shown, human IgG1 Fc) VH: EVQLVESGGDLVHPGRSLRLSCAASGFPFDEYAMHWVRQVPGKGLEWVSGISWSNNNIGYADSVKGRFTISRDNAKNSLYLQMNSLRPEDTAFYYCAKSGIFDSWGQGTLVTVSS VL: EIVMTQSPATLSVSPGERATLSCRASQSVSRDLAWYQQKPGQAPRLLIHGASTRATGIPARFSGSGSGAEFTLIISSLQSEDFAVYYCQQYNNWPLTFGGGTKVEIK here.
8.51

Supply recorded pKd for H1H6774P: anti-PRLR antibody, human IgG1 Fc; HCVR/LCVR SEQ ID NOs 34/42 (antibody, V domains shown, human IgG1 Fc) VH: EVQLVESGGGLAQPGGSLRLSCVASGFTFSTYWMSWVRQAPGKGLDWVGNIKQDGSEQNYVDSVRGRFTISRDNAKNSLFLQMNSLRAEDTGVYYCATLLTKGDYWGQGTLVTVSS VL: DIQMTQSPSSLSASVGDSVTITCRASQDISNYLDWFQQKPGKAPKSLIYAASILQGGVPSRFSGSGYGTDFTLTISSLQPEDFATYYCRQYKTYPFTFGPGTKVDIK here.
8.75

Supply recorded pKd for H1H6765P: anti-PRLR antibody, human IgG1 Fc; HCVR/LCVR SEQ ID NOs 18/26 (antibody, V domains shown, human IgG1 Fc) VH: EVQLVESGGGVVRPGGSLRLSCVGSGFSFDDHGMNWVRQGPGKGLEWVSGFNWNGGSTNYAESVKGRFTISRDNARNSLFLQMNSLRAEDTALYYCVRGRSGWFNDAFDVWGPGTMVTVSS VL: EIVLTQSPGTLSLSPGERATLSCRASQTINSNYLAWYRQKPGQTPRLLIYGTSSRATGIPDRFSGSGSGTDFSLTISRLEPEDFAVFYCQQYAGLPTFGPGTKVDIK here.
9.60
